System: MCF7
Test: NCI tumour cell line growth inhibition, 48 h
The source made the active and inactive calls. Cut-off read from the data, not from the text of the source: active = GI50 up to about 1.1 µM and inactive = higher.
Returns: one label drawn from class 1 for active, class 0 for inactive

Compound | Class label
COc1cc(O)ccc1C(=S)SC | class 0
N=C(N)C1CN(CCCCCCCCCCN2CC(C(=N)N)C(O)=NC2=O)C(=O)N=C1O (configuration not stated) | class 0
O=C(CC(NC(=O)C(F)(F)F)C(=O)O)OCc1ccccc1 (configuration not stated) | class 0
CCOP(=O)(OCC)C(C)(CC)NC1=NC(C(F)(F)F)(C(F)(F)F)NC(=O)N1 (configuration not stated) | class 0
CCSc1nc(N2CCOCC2)c2cn[nH]c2n1 | class 0
CC(=O)O[C@H]1C(=O)[C@@]2(C)[C@H]([C@H](OC(=O)c3ccccc3)[C@]3(O)C[C@H](OC(=O)[C@H](O)[C@@H](NC(=O)CC(C)(C)C)c4ccccc4)C(C)=C1C3(C)C)C1(OC(C)=O)CO[C@@H]1C[C@@H]2O (some centres not stated) | class 1
COc1ccc(COCC[C@H](C)OC2OC(CO[Si](C)(C)C(C)(C)C)C(O)C(O)C2O)cc1 (some centres not stated) | class 0
CCN1CCc2sc3nc(S)n(C)c(=O)c3c2C1 | class 0

Now examine the next entry.
Incoming: Returns: the outcome recorded for CCO/C=N/C1=C(C#N)C(c2ccc(Cl)cc2)c2c(-c3ccccc3)nn(-c3ccccc3)c2O1 (configuration not stated) in this assay.
Outgoing: class 0
